Biological target: T1, extracellular domain of human BCMA (human, UniProt Q02223 1-54)
T1 construct: amine-linked to Octet AR2G tips; also called hsBCMA; BCMA (human)
T1 sequence: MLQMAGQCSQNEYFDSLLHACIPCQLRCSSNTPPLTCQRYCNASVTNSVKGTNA
Test: Octet BLI; Fab 200 nM
pKd: −log10 of the molar value.
reported endpoint: pKd

binder	endpoint result
AB200-R1H32-R2Vk18 (Fab, V domains shown) VH: QVQLVQSGAEVKKPGSSVKVSCKASGGTFSNYWMHWVRQAPGQGLEWMGATYRSHSDTYYNQKFKSRVTITADKSTSTAYMELSSLRSEDTAVYYCARGAIYHGYDVIDNWGQGTLVTVSS VL: DIQMTQSPSSLSASVGDRVTITCRASQSISSYINWYQQKPGKAPKLLIYAASSLQSGVPSRFSGSGSGTDFTLTISSLQPEDFATYYCQQFRKIPWTFGQGTKLEIKR	8.82
AB200-R1H32-R2Vk3 (Fab, V domains shown) VH: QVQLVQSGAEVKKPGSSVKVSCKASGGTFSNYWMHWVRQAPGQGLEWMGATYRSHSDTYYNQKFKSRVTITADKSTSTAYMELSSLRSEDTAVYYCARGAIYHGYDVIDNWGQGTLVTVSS VL: DIQMTQSPSSLSASVGDRVTITCRASQSISSYLNWYQQKPGKAPKLLIYATSNLQSGVPSRFSGSGSGTDFTLTISSLQPEDFATYYCQQFRKLPWSFGQGTKLEIKR	9.00
AB200-R1H32-R2Vk37 (Fab, V domains shown) VH: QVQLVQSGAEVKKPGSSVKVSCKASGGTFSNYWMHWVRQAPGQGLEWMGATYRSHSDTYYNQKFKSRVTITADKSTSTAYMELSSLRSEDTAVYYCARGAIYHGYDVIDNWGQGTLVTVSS VL: DIQMTQSPSSLSASVGDRVTITCRASQSISSYINWYQQKPGKAPKLLIYATSNLQSGVPSRFSGSGSGTDFTLTISSLQPEDFATYYCQQYRKIPWSFGQGTKLEIKR	9.07
AB200-R1H32-R2Vk44 (Fab, V domains shown) VH: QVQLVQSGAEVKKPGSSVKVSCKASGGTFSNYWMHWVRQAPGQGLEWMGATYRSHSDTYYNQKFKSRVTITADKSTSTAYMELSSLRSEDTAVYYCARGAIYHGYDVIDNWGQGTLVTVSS VL: DIQMTQSPSSLSASVGDRVTITCRASQSISSYINWYQQKPGKAPKLLIYATSNLQIGVPSRFSGSGSGTDFTLTISSLQPEDFATYYCQQYRRLPWSFGQGTKLEIKR	9.15
AB200-R1H32-R2Vk47 (Fab, V domains shown) VH: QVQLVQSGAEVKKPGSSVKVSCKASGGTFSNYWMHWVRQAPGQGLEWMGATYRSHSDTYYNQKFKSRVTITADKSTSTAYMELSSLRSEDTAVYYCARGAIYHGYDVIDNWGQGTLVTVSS VL: DIQMTQSPSSLSASVGDRVTITCRASQSISSYINWYQQKPGKAPKLLIYATSNLQIGVPSRFSGSGSGTDFTLTISSLQPEDFATYYCQQYRKIPWSFGQGTKLEIKR	9.12
AB200-R1H32-R2Vk29 (Fab, V domains shown) VH: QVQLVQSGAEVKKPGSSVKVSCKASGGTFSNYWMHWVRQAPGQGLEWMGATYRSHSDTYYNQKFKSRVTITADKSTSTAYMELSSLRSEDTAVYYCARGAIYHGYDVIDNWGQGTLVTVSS VL: DIQMTQSPSSLSASVGDRVTITCRASQSISSYLNWYQQKPGKAPKLLIYATSNLQIGVPSRFSGSGSGTDFTLTISSLQPEDFATYYCQQYRRLPWSFGQGTKLEIKR	8.94
AB200-R1H32-R2Vk42 (Fab, V domains shown) VH: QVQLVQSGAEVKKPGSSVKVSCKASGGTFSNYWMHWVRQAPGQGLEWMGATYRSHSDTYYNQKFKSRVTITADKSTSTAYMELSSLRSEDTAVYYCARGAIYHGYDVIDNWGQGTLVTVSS VL: DIQMTQSPSSLSASVGDRVTITCRASQSISSYINWYQQKPGKAPKLLIYATSNIQSGVPSRFSGSGSGTDFTLTISSLQPEDFATYYCQQYRKIPWSFGQGTKLEIKR	8.98
AB200-R1H32-R2Vk10 (Fab, V domains shown) VH: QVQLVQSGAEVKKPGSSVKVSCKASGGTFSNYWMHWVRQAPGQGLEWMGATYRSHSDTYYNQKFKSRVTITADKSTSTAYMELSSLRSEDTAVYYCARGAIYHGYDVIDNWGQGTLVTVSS VL: DIQMTQSPSSLSASVGDRVTITCRASQSISSYLNWYQQKPGKAPKLLIYAASSLQSGVPSRFSGSGSGTDFTLTISSLQPEDFATYYCQQYRRIPWTFGQGTKLEIKR	8.68
AB200-R1H32-R2Vk17 (Fab, V domains shown) VH: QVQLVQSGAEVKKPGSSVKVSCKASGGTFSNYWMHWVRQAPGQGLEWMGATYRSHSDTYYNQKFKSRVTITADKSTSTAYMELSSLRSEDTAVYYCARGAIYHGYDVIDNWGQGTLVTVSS VL: DIQMTQSPSSLSASVGDRVTITCRASQSISSYINWYQQKPGKAPKLLIYAASSLQSGVPSRFSGSGSGTDFTLTISSLQPEDFATYYCQQYRKIPWSFGQGTKLEIKR	8.84
AB200-R1H32-R2Vk33 (Fab, V domains shown) VH: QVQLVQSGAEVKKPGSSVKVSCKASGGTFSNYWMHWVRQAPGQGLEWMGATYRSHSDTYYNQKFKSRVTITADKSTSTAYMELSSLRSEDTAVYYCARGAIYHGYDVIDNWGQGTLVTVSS VL: DIQMTQSPSSLSASVGDRVTITCRASQSISSYLNWYQQKPGKAPKLLIYATSNLQIGVPSRFSGSGSGTDFTLTISSLQPEDFATYYCQQFRKIPWTFGQGTKLEIKR	9.00

These data points were gathered from patent US20240327535A1.
